- Tested on: NCI-H322M lung
- experimentNotes: NCI-60 one-dose screen, 48 h (100 = growth as untreated, 0 = no growth, -100 = all killed)
- assayConditions: 10 µM unless noted
About 83,000 compounds went through this panel and 20% of them were active in at least one assay; those are over-represented in the sample as a whole. Calls of active or inactive are those of the source. The calls were made as follows: active = growth percent below 10; inactive = the rest.
valueType: growth

> print(dat)
                                   compound              recordedvalue
1  CCOC(=O)C1=C(c2ccccc2)N=C2SC=C(c3ccc(Cl)cc3)N2C1c1ccc(Cl)cc1 (stereo not given)           88.5% (inactive)
2  CCN(CC)CCn1c2ccc(OC)cc2c2sc3cc(OC)ccc3c(=O)c21           29.8% (inactive)
3  COc1ccc(C2=C(Br)C(=O)c3nc(C)ccc3C2=O)cc1           88.4% (inactive)
4  CCOC(=O)c1c(C(=O)c2cn(C)c3ccc(Br)cc23)c(-c2cn(C)c3ccc(Br)cc23)n(NC(=O)OC(C)(C)C)c1C  89.5% [100 µM] (inactive)
5  COC(=O)C1Cc2ccccc2CN1C(=O)c1ccc2c(c1)Cc1ccccc1-2 (stereo not given)   68.2% [50 µM] (inactive)

---

# growth annotations
- Tested on: HCC-2998 colon
- experimentNotes: NCI-60 one-dose screen, 48 h (100 = growth as untreated, 0 = no growth, -100 = all killed)
- assayConditions: 10 µM unless noted
About 83,000 compounds went through this panel and 20% of them were active in at least one assay; those are over-represented in the sample as a whole. Activity calls are given as the source filed them. How the source made its calls: active means growth percent below 10; inactive means the rest.
valueType: growth

> print(dat)
                                    compound  valuetype     recordedvalue
 1  O=C(Nc1ccc(Oc2cccc(F)c2)c(Cl)c1)c1cccnc1     growth  57.7% (inactive)
 2  Nc1[nH]n2cc(-c3ccccc3)nc2c1N=Nc1ccc(S(N)(=O)=O)cc1     growth  45.5% (inactive)
 3  Cn1cc(-c2csc(-c3c[nH]c4ccc(Br)cc34)n2)c2ccnc(Cl)c21     growth  82.9% (inactive)
 4  COc1ccc(C(=O)Nc2cccc(-c3cc(=O)c4c(OC)c(OC)c(OC)cc4o3)c2)cc1     growth  70.3% (inactive)
 5  CCOC(=O)c1c(NC(=O)c2cccc(C(F)(F)F)c2)sc2c(CN(C)C)c(O)ccc12     growth   -64.2% (active)
 6  COc1cc2c(cc1OCCCN1CCN(CCCOc3cc4c(cc3OC)C(=O)N3CC(F)(F)C[C@H]3C=N4)CC1)N=C[C@@H]1CC(F)(F)CN1C2=O     growth  60.5% (inactive)
 7  Cc1nc2sc(C(=O)Nc3cccc4ccccc34)c(N)c2cc1C(O)c1ccccc1 (stereo not given)     growth    5.55% (active)
 8  N#Cc1c(-c2ccccc2)cc(-c2ccccc2)n(CCCC(=O)Nc2ccccc2N)c1=O     growth  85.7% (inactive)
 9  CCOC(=O)c1ccc2c(c1)nc(-c1ccccc1)n2C1CCCCC1     growth  91.6% (inactive)
10  COc1ccc2c(c1)c(-c1nc(-c3c[nH]c4ccncc34)cs1)cn2C     growth   -73.5% (active)
11                  N#CC(C#N)N=Nc1ccc(Br)cc1     growth    46% (inactive)
12  O=C(NNC(=O)c1ccc(NC(=O)c2ccccn2)cc1)Nc1ccc([N+](=O)[O-])cc1     growth   109% (inactive)
13                        COc1ccccc1N1CCCCC1     growth   110% (inactive)
14  COc1cc(-c2csc(NC(=O)c3ccc(N4CCOCC4)c(C(F)(F)F)c3)n2)cc(OC)c1OC     growth  60.2% (inactive)
15  O=S(=O)(NCCCNc1nccc(-c2c(-c3ccc(F)c(O)c3)nc3occn23)n1)c1ccc(Cl)cc1     growth  85.7% (inactive)
16  N#Cc1nc(-c2ccc(F)cc2)oc1S(=O)(=O)N1CCOCC1     growth   106% (inactive)
17  CC(=O)c1c(C)nc(SCC(=O)Nc2cccc(O)c2)n1-c1ccc(Cl)cc1     growth  99.3% (inactive)
18  Nc1c(C(=O)Nc2ccccc2C(F)(F)F)sc2nc3c(cc12)CCC3     growth  94.6% (inactive)
19  O=C(NCCNc1nccc(Nc2ccc(S(=O)(=O)Nc3ccccn3)cc2)n1)c1cccc([N+](=O)[O-])c1     growth   109% (inactive)
20  Cc1nc2sc(C(=O)Nc3ccc(Br)cc3)c(N)c2cc1C(O)c1ccccc1 (stereo not given)     growth  76.5% (inactive)
